Target: T1, human IL-6 (Interleukin-6) (human, UniProt P05231 30-212)
T1 construct: also called 001 IL-6 antigen
Experiment: Biacore (SPR), antibody captured on anti-human Fc, IL-6 as analyte
Listed here: items and their measured Ka.
recorded endpoint: Ka (M⁻¹)

[[record]]
binder = "Clone BA399-02 (antibody, V domains shown, also called BA399-2; BA399 clone #2) VH: QVQLVQSGAEVKKPGASVKVSCKASGFTFSSFSMSWIRQSPSRGLEWLGEISSGGSYTYYPDTKTGRFTISRDNAKNSLYLQMNSLRAEDTAVYYCARGQWGYYALDYWGQG VL: AIQLTQSPSSLSASVGDRVTITCYASSSVSYMYWYQQKPGQAPRLLIYDTSNLASGIPPRFSGSGYGTDFTLTINNIESEDAAYYFCQQWSGYPYTFGQG"
recorded_endpoint = "Ka"
unit_abbreviation = "M⁻¹"
test_result = "8.14e+13"

[[record]]
binder = "Clone BA399-09 (antibody, V domains shown, also called BA399-9; BA399 clone #9) VH: QVQLVQSGAEVKKPGASVKVSCKASGFTFSSFSMSWIRQSPSRGLEWLGEISSGGSYHYYPDTVTGRFTISRDNAKNSLYLQMNSLRAEDTAVYYCARGQWGYYALDYWGQG VL: AIQLTQSPSSLSASVGDRVTITCYASSSVSYMYWYQQKPGQAPRLLIYDTLNLASGIPPRFSGSGYGTDFTLTINNIESEDAAYYFCQQWSGYPYTFGQG"
recorded_endpoint = "Ka"
unit_abbreviation = "M⁻¹"
test_result = "1.28e+13"

[[record]]
binder = "Clone BA399-05 (antibody, V domains shown, also called BA399-5) VH: QVQLVQSGAEVKKPGASVKVSCKASGFTFSSFAMSWIRQSPSRGLEWLGEISSGGSYTYYPDTKTGRFTISRDNAKNSLYLQMNSLRAEDTAVYYCARGQWGYYALDYWGQG VL: AIQLTQSPSSLSASVGDRVTITCYASSSVSYMYWYQQKPGQAPRLLIYDTSNLASGIPPRFSGSGYGTDFTLTINNIESEDAAYYFCQDWSGYPYTFGQG"
recorded_endpoint = "Ka"
unit_abbreviation = "M⁻¹"
test_result = "3.52e+10"

[[record]]
binder = "BA399_CPS_10 (antibody, V domains shown, also called Clone BA399-10; BA399_10) VH: QVQLVQSGAEVKKPGASVKVSCKASHFTFSSFSMSWIRQSPSRGLEWLGEISSGGSYHYYPDTVTGRFTISRDNAKNSLYLQMNSLRAEDTAVYYCARGQWGYYALDYWGQG VL: AIQLTQSPSSLSASVGDRVTITCYASSSVSYMYWYQQKPGQAPRLLIYDTLNLASGIPPRFSGSGYGTDFTLTINNIESEDAAYYFCQQWSGYPYTFGQG"
recorded_endpoint = "Ka"
unit_abbreviation = "M⁻¹"
test_result = "3.52e+12"

